FYI, the data here is from the supplement of paper PMC9170038.

Tested on: MS2 coat protein
Test: apparent KD of MS2 coat protein; designed switch direction (-1 OFF switch, 1 ON switch): -1; higher = weaker reporter binding
Settings: Eterna round: R95; input ligand: microRNA oligo, concentration not stated
outcome-measure: apparent KD of MS2 coat protein (µM)

entry-sequence	observed-value
AAUAACAGAGGAUAUACUAUUUUAUGUGUUUGUUGUUUUGAACAUGAGGAUCACCCAUGUAGAAGGCUGAUUGA [JMF 80] (puzzle: Exclusion 2)	0.0396
CAAAAGGAAGGAUAUGAUAAGCAGGACAUGAGGAUCACCCAUGUGACUGCCUCGUGGACAUCAGAAGGUCCAGGAC [Erqureorle] (puzzle: Exclusion 5)	0.0172
UUAUACGUUGAGGAUAUGUCAGUUAGUAUAUUUACAGAAGGCGAUACAUGAGGAUCACCCAUGUUUAUGGGCAU [Ex-6 Malc#3] (puzzle: Exclusion 6)	0.127
GAUACACAUGAGGAUCACCCAUGUGAGGAUAUGCGUACGUUGUCCGUAGGCGACGUGCGCAGAAGGCGCGAGGU [Mat - Mod of JL D92] (puzzle: Exclusion 1)	0.0318
CGACUGUGAGGAUAUGGUGAGUAGUGCCUGAGCGCUGCUCACCAGAAGGCACAUGAGGAUCACCCAUGUAUGAC [Mat - Exclusion 4 - Mod of JL - D8] (puzzle: Exclusion 4)	0.0728

====

Tested on: K4 kissing-loop RNA reporter;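 note: bound reporter read as fluorescence of individual clusters on recovered sequencing chips by microscopy, with normalized cluster intensities fitted with a binding model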
Test: apparent KD of K4 kissing-loop reporter; higher = weaker reporter binding
Conditions: Eterna round: R107; input ligand: tryptophan 2.4 mM

entry-sequence	study-target	apparent KD of K4 kissing-loop reporter, nM
GAUCCAUGACAAGGAUAUUCGCCAACGGUGCCGGAGUGAUGUUCUGCACAACAGACUACAAGUAAGGAAGAAGGUGUCAGUUACC [theeternabot_sameState_KL_FMN_B_29]	K4 kissing-loop RNA reporter	561
GGUUUCUGAAGUGAUGUUUCAGGAUGACACAAGGAUAUAUAUGGCGAUAGAAGGUGUGCGUCGCAUGACGAACGACGUCAGCUUC [theeternabot_exclusion_KL_FMN_A_37]	K4 kissing-loop RNA reporter	93
GCAUGUAUGCGAGAGUGAUGUUCAUGGUUUCGAGGACCGGUACGGCCGCCACUCGCGAUCCGGCGUACAAUCGUGAAGUUAUCAU [theeternabot_sameState_KL_Trp_A_42]	K4 kissing-loop RNA reporter	672
UUAUUAUUCAGUGAUGUUGAAUUUAUUUCAGAGGAUAUGCAUAAAUGCAGAAGGCUGUAAUACUAUACUUUAAUAAAUUAAAUUU [JR_SSFMNA_Sub018]	K4 kissing-loop RNA reporter	203
GCCGUAGAUGGAAGGAGCGACUUCAGCGGAUAAACGUGACAAUUGGAGUGAUGUUCGCAAGGUCAGGUAGGUCGCCAUCUACGGC	K4 kissing-loop RNA reporter	313
AUUUUGGUUUAGAGUGAUGUUCCUUGUAUUCGAGGACCGGUACGGCCGCCACUCGGGUAGAAAAGAAAAGAAAUGUUUGAUUUUU [BDazzled - #9 SS Tryptophan A]	K4 kissing-loop RNA reporter	290
GAGUCGGCACAAGGAUAUAGGUGUAGUGAUGUUAUGUCUCCUUGACUCACUCGUUACCCUCAACGUCUAGAAGGUGUGAAUGCAG [theeternabot_exclusion_KL_FMN_B_46]	K4 kissing-loop RNA reporter	251
CGCCGCAAGGCGAGCGCUCCCACUCCGGAAGGAGCGCCCGCAAGGGCAGGUAGGUCGCCGGAGUGAUGUUCCGGUGGAGGGCUCG [#2 Exclusion - Arginine A Attempt #15 (Inspired by Omei)]	K4 kissing-loop RNA reporter	439
GGUAGGGCAGCUGCGGAAACGCAGCAUAUCGAGGAUAUCGGGAAACCGAGAAGGCGAGUAGUGAUGUUACUGGUUUAGCCCUACC	K4 kissing-loop RNA reporter	173
AUUUAAUUAACUGAUACCAGACUUUUUGUUUUGUUUAUUACUAGUGAUGUUAGUGUUUCUGUCCCUUGGCAGCAGUAUCUACUUA [JR_ExcTheophyB_Sub015]	K4 kissing-loop RNA reporter	122
CCCAAAAUAUGCAGUGAUGUUGCAACCGAUACCAGUAUCGAAAGAUACCCUUGGCAGCGGAAAACCGCAACGUAAUUUAAAAGGG [Ex Theophylline A K4 16]	K4 kissing-loop RNA reporter	147
AGGGCUGAGAGCGAUACCAGCGGUAACUGUAUGGUCCAAUAGAGUGAUGUUUUAUAGAGCCGCCCUUGGCAGCGCAAUCUAUUAG [XTheo-B5]	K4 kissing-loop RNA reporter	129
